# measured-on: IL-2 receptor βγ complex (CD122/CD132) on HEK-Blue IL-2Rβγ reporter cells (UniProt P14784)
# Sequence (P14784 27-551 limits assumed, chain 1 of 2): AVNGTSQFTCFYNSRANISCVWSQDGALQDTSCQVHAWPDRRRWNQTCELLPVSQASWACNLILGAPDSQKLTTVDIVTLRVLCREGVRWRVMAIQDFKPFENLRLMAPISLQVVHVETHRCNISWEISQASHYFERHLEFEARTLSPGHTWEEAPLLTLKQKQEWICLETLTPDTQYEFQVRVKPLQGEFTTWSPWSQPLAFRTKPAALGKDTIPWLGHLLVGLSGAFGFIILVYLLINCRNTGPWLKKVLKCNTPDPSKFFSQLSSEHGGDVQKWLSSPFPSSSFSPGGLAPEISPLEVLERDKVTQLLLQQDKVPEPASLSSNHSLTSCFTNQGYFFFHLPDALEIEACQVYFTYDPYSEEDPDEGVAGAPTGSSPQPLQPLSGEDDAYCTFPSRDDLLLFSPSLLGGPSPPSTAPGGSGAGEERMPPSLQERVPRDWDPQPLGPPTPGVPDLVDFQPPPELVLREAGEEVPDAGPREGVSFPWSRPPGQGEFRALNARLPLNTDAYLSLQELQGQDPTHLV
# Sequence (P31785 23-369 limits assumed, chain 2 of 2, further chain): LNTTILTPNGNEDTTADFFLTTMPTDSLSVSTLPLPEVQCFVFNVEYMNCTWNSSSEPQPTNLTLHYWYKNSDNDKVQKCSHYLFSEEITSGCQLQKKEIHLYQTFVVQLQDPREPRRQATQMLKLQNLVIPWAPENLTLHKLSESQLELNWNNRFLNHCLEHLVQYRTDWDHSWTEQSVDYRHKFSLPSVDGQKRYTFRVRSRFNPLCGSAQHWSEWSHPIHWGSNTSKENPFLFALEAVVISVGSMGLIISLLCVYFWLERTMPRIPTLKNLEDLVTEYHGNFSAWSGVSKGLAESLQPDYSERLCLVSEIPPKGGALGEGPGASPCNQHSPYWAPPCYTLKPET
# assay-notes: cell-based or functional assay
Bridges are numbered along the chain shown (N, C = ends). [ ]: non-standard residue; d: D form. Ygp = O-(8x polyethylene glycol-amino)-tyrosine; Yn3 = O-(9x polyethylene glycol-azido)-tyrosine; hSer = N[C@@H](CCO)C(=O)O; Nle = CCCC[C@H](N)C(=O)O
readout-kind: Average EC50, HEK-Blue IL-2R (CD122+, CD132+) reporter assay (nM)
Please state the figure in nM; there is no need to write the unit.

Enquiry: I have this binder here, CMP-161 (ligand, bridge N-32; not fully specified (bridges)) PLGLAGAPTSSSTKKTQLQLEHLLLDLQ[Nle]ILEGINNYKNPKLTR[Nle]L[hSer][Yn3]KF[Ygp][Nle]PKKATELKHLQCLEEELKPLEEVL[hSer]LAQSKNFHLRPRDLISNINVIVLELKGSETTF[hSer]CEYADETATIVEFLNRWITFSQSIISTLT , and I need its recorded Average EC50, HEK-Blue IL-2R (CD122+, CD132+) reporter assay.
Return: 0.168
